assay: physchem; conditions: pH 1
recorded.endpoint: logD hydrocarbon water

(P) COc1ccc2c(c1)c(CC(=O)O)c(C)n2C(=O)c1ccc(Cl)cc1
(Q) O=C(O)c1ccccc1O
(R) Cc1cccc(Nc2ccccc2C(=O)O)c1C
Arrange the 3 entries by logD hydrocarbon water so the values rise. Would you mind listing the labels in the order asked for?
Q, R, P

* * *

assay: physchem; settings: pH 7
recorded.endpoint: logD hydrocarbon water

Cc1cccc(Nc2ccccc2C(=O)O)c1C | 0.47

(A) COc1ccc2c(c1)c(CC(=O)O)c(C)n2C(=O)c1ccc(Cl)cc1
(B) O=C(O)c1ccccc1O
Which record shows the lower logD hydrocarbon water: the first, A , or the second, B ? Answer by quoting the chosen item's label.
A
